Assay: gradient 5% acetonitrile 3 min, to 50% in 2 min, to 85% in 15 min, held 3 min, 100 µL/min
Conditions: column: Zorbax Extend-C18 2.1 x 50 mm; eluents: water / acetonitrile, 0.1% formic acid
RECORDED_ENDPOINT: RP-LC retention time (s)
Response body: numeric value in s, unit text excluded.

Solved entries:
CSc1ccc(-c2noc(Cn3nc(-c4ccccc4)ccc3=O)n2)cc1
1040
CCN(C(=O)CN1C(=O)CCCc2cc(S(=O)(=O)N3CCCCC3)ccc21)c1ccc(OC)cc1
961
O=C(NC1CCCCC1)C1CCN(c2ncccc2-c2nc(-c3ccc(Cl)cc3)no2)CC1
1230
O=C(c1ccc2ccccc2n1)N1C[C@@H](CO)[C@H](c2ccccn2)C1
590
O=C(NCc1ccc(F)cc1)C1CCN(C(=O)C2Sc3ccccc3NC2=O)CC1 (stereo not drawn)
804

Give its RP-LC retention time value. Item: Cc1csc(COc2ccc(C(=O)Nc3ccc4cn[nH]c4c3)cc2)n1
711

CSc1ccc(CNC(=O)CN2CCc3[nH]c4c(C)cc(C)cc4c(=O)c3C2)cc1 , same question.
904

What about this compound? CCC(C(=O)NCc1cccnc1)n1c2ccccc2c2cnn(C)c(=O)c21 (stereo not drawn)
615

Subsequent entry: O=c1ccc(-c2nc(-c3ccncc3)no2)cn1Cc1noc(C2CCCC2)n1
719

Follow-up entry: CC(=O)N1c2ccc(S(=O)(=O)N3CCCCC3)cc2CC1C(=O)Nc1ccc(C)cc1C (stereo not drawn)
868

Request: COc1ccc(C2(C(=O)N3CCN(C(=O)N4C[C@H]5C[C@H](C4)[C@H]4CCCC(=O)N4C5)CC3)CC2)cc1
696

Item: N#Cc1cccc(NC(=O)c2cccn2Cc2noc(-c3ccccc3)n2)c1
1040

These data points were gathered from the METLIN SMRT retention time set (Domingo-Almenara et al. 2019).
